# credit: patent US9981909B2

Target: h5HT2C (Homo sapiens (Human), UniProt P28335)
Sequence (P28335 33-458): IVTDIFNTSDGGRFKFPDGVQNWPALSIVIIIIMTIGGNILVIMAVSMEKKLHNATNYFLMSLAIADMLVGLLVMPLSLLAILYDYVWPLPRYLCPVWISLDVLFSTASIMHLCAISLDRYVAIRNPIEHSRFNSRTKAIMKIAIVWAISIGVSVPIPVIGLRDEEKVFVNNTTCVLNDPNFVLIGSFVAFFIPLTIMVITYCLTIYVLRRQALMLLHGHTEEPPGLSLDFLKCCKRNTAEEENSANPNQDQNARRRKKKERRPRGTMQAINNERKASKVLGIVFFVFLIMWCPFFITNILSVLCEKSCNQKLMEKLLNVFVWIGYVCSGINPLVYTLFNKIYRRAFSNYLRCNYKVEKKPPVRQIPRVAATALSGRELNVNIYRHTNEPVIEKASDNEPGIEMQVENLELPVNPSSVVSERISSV
Experiment: h5HT2C binding
Structures can show the parent of a compound that is named as a salt.
Rule: measured Ki below 70 nM gets fulfilled; anything equal to or greater than 70 nM gets not fulfilled.

>>> print(df.to_string())
                                   compound                             tested_system  assigned_label
0    CN1CC[C@@H](Oc2ccc(Cl)cc2OCc2ccccc2)C1  h5HT2C (Homo sapiens (Human), UniProt P28335)   not fulfilled
1  FC(F)(F)c1ccc(OCc2ccc(C(F)(F)F)o2)c(OC2CNC2)c1  h5HT2C (Homo sapiens (Human), UniProt P28335)   not fulfilled
2  C[C@@H](Oc1ccc(Br)cc1OC1CNC1)c1cccc(C(F)(F)F)c1  h5HT2C (Homo sapiens (Human), UniProt P28335)   not fulfilled
3        Clc1cccc(CCOc2ccc(Cl)cc2OC2CNC2)c1  h5HT2C (Homo sapiens (Human), UniProt P28335)   not fulfilled
4  Cc1ccc2c(c1)C(Oc1ccc(Cl)cc1OC1CNC1)CC2 (racemic)  h5HT2C (Homo sapiens (Human), UniProt P28335)   not fulfilled
5         Fc1cccc(CCOc2ccc(Cl)cc2OC2CNC2)c1  h5HT2C (Homo sapiens (Human), UniProt P28335)       fulfilled
6      FC(F)(COc1ccc(Cl)cc1OC1CNC1)c1ccccc1  h5HT2C (Homo sapiens (Human), UniProt P28335)       fulfilled
7        Clc1ccc(CCOc2ccc(Cl)cc2OC2CNC2)cc1  h5HT2C (Homo sapiens (Human), UniProt P28335)   not fulfilled
8  FC(F)(F)c1ccc(OCc2ccccc2)c(OC2CNC2)c1 [Example 201, hydrochloride]  h5HT2C (Homo sapiens (Human), UniProt P28335)   not fulfilled

----------
The following compounds are listed with their measured Kb values.
Biological target: r5-HT7 receptor (Rattus norvegicus (Rat))
Sequence (P32305 1-435): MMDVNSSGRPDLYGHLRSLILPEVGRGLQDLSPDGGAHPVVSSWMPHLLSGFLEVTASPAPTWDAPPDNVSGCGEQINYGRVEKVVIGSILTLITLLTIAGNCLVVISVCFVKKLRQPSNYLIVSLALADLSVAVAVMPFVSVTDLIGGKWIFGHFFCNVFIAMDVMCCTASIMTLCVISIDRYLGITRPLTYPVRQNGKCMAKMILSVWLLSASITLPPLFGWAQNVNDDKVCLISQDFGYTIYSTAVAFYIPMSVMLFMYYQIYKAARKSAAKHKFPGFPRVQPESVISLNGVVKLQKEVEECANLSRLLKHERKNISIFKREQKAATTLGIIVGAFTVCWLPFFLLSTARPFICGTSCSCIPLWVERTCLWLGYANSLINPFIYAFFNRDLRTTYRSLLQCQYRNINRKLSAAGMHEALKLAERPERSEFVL
Assay: HitHunter cAMP assay, antagonist testing against 100 nM 5-CT
Format: cell-based
Settings: antagonist testing, 100 nM 5-CT challenge, HEK-293 r5-HT7; read-out: R5HT7 cAMP pKb (converted)
Counter-ions that a name gives are not always drawn.
readout-label: Kb (nM)

                                    compound                             tested_system  measured_number
 0  FC(F)(F)c1ccc(OCc2ccc(C(F)(F)F)o2)c(OC2CNC2)c1 [Example 199]  r5-HT7 receptor (Rattus norvegicus (Rat))             39.8
 1  CC(Oc1ccc(Cl)cc1OC1CNC1)c1cccc(C(F)(F)F)c1 (racemic) [Example 105]  r5-HT7 receptor (Rattus norvegicus (Rat))             50.1
 2  CC(C)N1CC(Oc2cc(Br)ccc2OCc2cccc(Cl)c2)C1 [Example 5]  r5-HT7 receptor (Rattus norvegicus (Rat))             5.01
 3  Clc1ccc(OC2Cc3ccccc3C2)c(OC2CNC2)c1 [Example 173]  r5-HT7 receptor (Rattus norvegicus (Rat))             7.94
 4  CN1CCC(Oc2cc(Br)ccc2OCc2cccc(Cl)c2)CC1 [Example 66]  r5-HT7 receptor (Rattus norvegicus (Rat))             50.1
 5  Fc1ccc2c(c1)CCC2Oc1ccc(Br)cc1OC1CNC1 (racemic) [Example 154]  r5-HT7 receptor (Rattus norvegicus (Rat))               20
 6  FC(F)(F)c1ccc(OCc2ccccc2)c(OC2CNC2)c1 [Example 201, hydrochloride]  r5-HT7 receptor (Rattus norvegicus (Rat))             50.1
 7  FC(F)(F)c1cccc(COc2ccc(Cl)cc2OC2CNC2)c1 [Example 39]  r5-HT7 receptor (Rattus norvegicus (Rat))             3.16
 8  Clc1ccc(Oc2ccc3ccccc3c2)c(OC2CNC2)c1 [Example 260]  r5-HT7 receptor (Rattus norvegicus (Rat))             1000
 9  Clc1cccc(COc2ccc(Br)cc2OC2CNC2)c1 [Example 2]  r5-HT7 receptor (Rattus norvegicus (Rat))             31.6
10  FC(F)(F)Oc1cccc(COc2ccc(Br)cc2OC2CNC2)c1 [Example 7]  r5-HT7 receptor (Rattus norvegicus (Rat))             63.1
11  Clc1ccc(Oc2ccc(Cl)cc2OC2CNC2)cc1 [Example 258, trifluoroacetate]  r5-HT7 receptor (Rattus norvegicus (Rat))              501
12  Clc1ccc(COc2ccc(Br)cc2OC2CNC2)cc1 [Example 14, trifluoroacetate]  r5-HT7 receptor (Rattus norvegicus (Rat))              158

----------
Target: h5HT2B (Homo sapiens (Human), UniProt P41595)
Sequence (P41595 whole entry): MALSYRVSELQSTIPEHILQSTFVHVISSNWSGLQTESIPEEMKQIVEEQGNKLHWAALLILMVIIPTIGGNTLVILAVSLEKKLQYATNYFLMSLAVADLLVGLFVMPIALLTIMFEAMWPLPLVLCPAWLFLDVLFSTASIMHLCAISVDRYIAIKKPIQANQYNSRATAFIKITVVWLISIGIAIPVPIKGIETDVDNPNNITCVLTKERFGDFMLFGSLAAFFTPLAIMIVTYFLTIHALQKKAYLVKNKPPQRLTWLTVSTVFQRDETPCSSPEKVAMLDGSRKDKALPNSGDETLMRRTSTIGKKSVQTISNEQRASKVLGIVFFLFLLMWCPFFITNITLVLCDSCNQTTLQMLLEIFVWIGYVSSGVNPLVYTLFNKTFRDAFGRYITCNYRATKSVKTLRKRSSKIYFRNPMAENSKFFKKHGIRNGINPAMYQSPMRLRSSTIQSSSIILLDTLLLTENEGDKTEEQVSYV
Experiment: h5HT2B binding
pKi: −log10 of the molar value.
Short version: pKi at least 7 is yes, less is no.

In [3]: df
Out[3]:
                 compound_structure_string                             tested_system  assigned_label
0    Clc1cccc(Oc2cc(Cl)ccc2O[C@H]2CCNC2)c1  h5HT2B (Homo sapiens (Human), UniProt P41595)              no
1       Cc1ccccc1Oc1cc(Cl)ccc1O[C@H]1CCNC1  h5HT2B (Homo sapiens (Human), UniProt P41595)              no
2        CC1(Oc2cc(Br)ccc2OCCc2ccccc2)CNC1  h5HT2B (Homo sapiens (Human), UniProt P41595)             yes
3  Clc1ccc(O[C@H]2CCNC2)c(Oc2ccc(Br)cc2)c1  h5HT2B (Homo sapiens (Human), UniProt P41595)              no

----------
Target: h5HT2A (Homo sapiens (Human), UniProt P28223)
Sequence (P28223 whole entry): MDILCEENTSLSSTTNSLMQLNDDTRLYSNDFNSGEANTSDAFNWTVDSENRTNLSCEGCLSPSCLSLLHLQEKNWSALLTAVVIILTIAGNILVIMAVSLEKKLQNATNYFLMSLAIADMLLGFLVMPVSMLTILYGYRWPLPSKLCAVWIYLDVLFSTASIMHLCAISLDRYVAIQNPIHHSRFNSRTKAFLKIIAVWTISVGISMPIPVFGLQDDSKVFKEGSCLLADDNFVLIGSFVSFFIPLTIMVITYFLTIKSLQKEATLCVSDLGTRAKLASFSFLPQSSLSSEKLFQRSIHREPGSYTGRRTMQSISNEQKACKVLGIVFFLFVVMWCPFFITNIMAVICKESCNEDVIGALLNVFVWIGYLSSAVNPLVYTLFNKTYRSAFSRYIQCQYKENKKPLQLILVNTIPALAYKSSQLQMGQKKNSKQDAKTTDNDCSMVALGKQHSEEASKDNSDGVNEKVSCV
Experiment: h5HT2A binding
pKi: −log10 of the molar value.
readout-label: pKi

>>> df
                                    molecule                             tested_system  measured_number
 0  CC(Oc1ccc(Cl)cc1OC1CNC1)c1cccc(C(F)(F)F)c1 (stereo in doubt)  h5HT2A (Homo sapiens (Human), UniProt P28223)             6.50
 1         Fc1ccc(CCOc2ccc(Cl)cc2OC2CNC2)cc1  h5HT2A (Homo sapiens (Human), UniProt P28223)             7.96
 2          Brc1ccc(OCCc2ccccc2)c(OC2CNC2)c1  h5HT2A (Homo sapiens (Human), UniProt P28223)             8.00
 3  Clc1ccc(OC2CCc3ccccc3C2)c(OC2CNC2)c1 (centres unmarked)  h5HT2A (Homo sapiens (Human), UniProt P28223)             7.62
 4  C[C@@H](Oc1ccc(C(F)(F)F)cc1OC1CNC1)c1cccc(C(F)(F)F)c1 (stereo in doubt)  h5HT2A (Homo sapiens (Human), UniProt P28223)             6.22
 5  CC(Oc1ccc(Br)cc1OC1CNC1)c1cccc(Cl)c1 (racemic)  h5HT2A (Homo sapiens (Human), UniProt P28223)             7.14
 6  COC(COc1ccc(Cl)cc1OC1CNC1)c1ccccc1 (centres unmarked)  h5HT2A (Homo sapiens (Human), UniProt P28223)             8.10
 7  CN1CC[C@@H](Oc2ccc(Cl)cc2OCc2cccc(Cl)c2)C1  h5HT2A (Homo sapiens (Human), UniProt P28223)             8.52
 8    Clc1cccc(COc2cc(Cl)ccc2O[C@H]2CCNC2)c1  h5HT2A (Homo sapiens (Human), UniProt P28223)             7.49
 9  Clc1ccc(OC2CCc3ccc(Cl)cc32)c(OC2CNC2)c1 (racemic)  h5HT2A (Homo sapiens (Human), UniProt P28223)             8.22
10  C[C@@H](Oc1ccc(Cl)cc1OC1CCNCC1)c1cccc(C(F)(F)F)c1  h5HT2A (Homo sapiens (Human), UniProt P28223)             6.85

----------
pKi: −log10 of the molar value. Structures can show the parent of a compound that is named as a salt.
human SERT (Homo sapiens (Human)): recorded pKi for assorted compounds
Sequence (P31645 whole entry): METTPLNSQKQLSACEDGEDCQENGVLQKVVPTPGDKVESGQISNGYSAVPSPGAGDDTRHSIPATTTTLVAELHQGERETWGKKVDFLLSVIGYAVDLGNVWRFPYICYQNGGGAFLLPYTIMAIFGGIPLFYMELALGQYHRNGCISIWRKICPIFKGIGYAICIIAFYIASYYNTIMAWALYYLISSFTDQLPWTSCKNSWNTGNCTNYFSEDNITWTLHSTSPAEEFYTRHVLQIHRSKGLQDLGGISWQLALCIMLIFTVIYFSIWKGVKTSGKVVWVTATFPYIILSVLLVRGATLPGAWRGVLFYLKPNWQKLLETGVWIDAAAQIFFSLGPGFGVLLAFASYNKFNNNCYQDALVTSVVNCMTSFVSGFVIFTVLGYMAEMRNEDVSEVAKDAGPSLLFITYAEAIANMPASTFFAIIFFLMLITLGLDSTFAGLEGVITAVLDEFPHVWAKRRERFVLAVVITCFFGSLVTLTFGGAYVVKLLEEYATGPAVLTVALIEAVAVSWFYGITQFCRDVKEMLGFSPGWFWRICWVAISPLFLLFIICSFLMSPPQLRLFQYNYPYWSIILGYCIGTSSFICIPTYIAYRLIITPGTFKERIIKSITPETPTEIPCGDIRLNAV
readout-label: pKi

>>> df
                                   compound  readout_label  measured_number
0  Clc1ccc(OC2CCc3ccc(Cl)cc32)c(OC2CNC2)c1 (racemic)            pKi             7.68
1   Clc1ccc(OCc2ccc(Cl)c(Cl)c2)c(OC2CNC2)c1            pKi             8.30
2  Cc1nc(-c2cccc(COc3ccc(Cl)cc3OC3CNC3)c2)no1 [Example 31, hydrochloride]            pKi             7.05
